Tested on: Saccharomyces cerevisiae
experiment: protein stability index of tFT-peptide fusion (C-terminal peptide) (PSI (0-1 scale)); higher = more stable (slower turnover);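 note: PSI is a weighted mean of sequencing reads over stability bins, variants kept only with over 10 reads, mCherry proximal and sfGFP distal, peptide attached via GGGS linker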
conditions: genetic background: wild type; temperature: 30 C
Quick reference for protein stability index among some sequences
quantity_name: protein stability index

>>> endpoint_value("FWMLCFLCRLTV")
0.32
>>> endpoint_value("GCMVFTGGKRVL")
0.672
>>> endpoint_value("PYKASGLAGCAV")
0.697
>>> endpoint_value("VFPWRDSNLYAS")
0.713
>>> endpoint_value("EGGEWGSFGSAV")
0.704
>>> endpoint_value("YTPDFPTIVSFI")
0.694
>>> endpoint_value("GGGGVLGVVRVG")
0.62
>>> endpoint_value("SFVDDILVRPIA")
0.715
>>> endpoint_value("SPRSIALLHLFS")
0.3
>>> endpoint_value("PLPIHSHPPPVP")
0.615
>>> endpoint_value("GPGTAMCLWWWG")
0.692
>>> endpoint_value("FPLPPPGSPPPL")
0.0293
>>> endpoint_value("LKGVVRFISGQD")
0.717
>>> endpoint_value("SRFFSSSFYRLC")
0.324
>>> endpoint_value("KVVSGLKSGPVQ")
0.677
>>> endpoint_value("NKIKKTQKKKLG")
0.766
>>> endpoint_value("DVRNVCNISDEV")
0.654
>>> endpoint_value("CGPLPLVRSLLP")
0.703
>>> endpoint_value("KKERTGTKKKKK")
0.698
>>> endpoint_value("LSRMTNFKEKEG")
0.669
>>> endpoint_value("PPFRSPPRHDPL")
0.662
>>> endpoint_value("YSRGVSGSDKFP")
0.747
>>> endpoint_value("PLPPPPTPPVLP")
0.691
>>> endpoint_value("DPDPNHATGKIC")
0.616
>>> endpoint_value("HEVRGVFWNPRF")
0.712
>>> endpoint_value("WILLVLACFSSG")
0.325
>>> endpoint_value("PSPPHPPPPLFP")
0.706
>>> endpoint_value("AFWLPAAVPLIF")
0.584
>>> endpoint_value("RRSRLYKKAGLM")
0.301
>>> endpoint_value("SLVVFGFGGYLL")
0.686
>>> endpoint_value("ALTGYYNQYRYE")
0.745
>>> endpoint_value("LHKAATADPPRV")
0.711
>>> endpoint_value("SPNAPMPPRPRH")
0.594
>>> endpoint_value("PLPIPSPLRSSF")
0.689
>>> endpoint_value("RPPLLSPSPPPP")
0.649
>>> endpoint_value("YCPVFSLPPFFR")
0.664
>>> endpoint_value("ASLSKLTLKVTV")
0.586
>>> endpoint_value("GASPTNSPLIYT")
0.679
>>> endpoint_value("QNLRLRKNIDIK")
0.76
>>> endpoint_value("LPVPTLGRPLSL")
0.69
>>> endpoint_value("VVPYPFLTLLNI")
0.58

* * *

Reported protein stability index values follow for various sequences
Test system: Saccharomyces cerevisiae
experiment: protein stability index of tFT-peptide fusion (C-terminal peptide) (PSI (0-1 scale)); higher = more stable (slower turnover)
conditions: genetic background: cdc53-1; temperature: 37 C
quantity_name: protein stability index

>>> endpoint_value("CLLLFFIFLLFL")
0.452
>>> endpoint_value("DKKPMKKILLCI")
0.565
>>> endpoint_value("LIIVFGFTSILR")
0.572
>>> endpoint_value("GFVLMLLVRFEL")
0.416
>>> endpoint_value("IYITFQIYVSDM")
0.172
>>> endpoint_value("VLVLLVCVAALV")
0.222
>>> endpoint_value("VVNFLVFRFFCI")
0.531
>>> endpoint_value("LIPFPGFFILLT")
0.13
>>> endpoint_value("GFLFVLCAWGFF")
0.321
>>> endpoint_value("SGPTIRRRLFVH")
0.735
